Recorded pIC50 by entry
- targetSystem: T1, full-length human SIRPαV2 (CAA71403.1) on cells (human, UniProt P78324 31-504)
- T1 construct: one molecule for CHO-K1 and Expi-CHO transfectants (CAA71403.1) and for endogenous V2 on THP-1 cells and on CD14+ monocytes of V2/V2 donors; also called CHO-hSIRPαV2; αV2 WT
- experimentSummary: flow cytometry, competition with CD47 tetramer, monocytes V2V2
Just the number, please; pIC50 means minus log10 of the concentration in mol/L.

INSERT INTO results (binder, measurementname, datavalue) VALUES
  ('Antibody C (antibody, human IgG1, kappa, L234A L235A, V domains shown) VH: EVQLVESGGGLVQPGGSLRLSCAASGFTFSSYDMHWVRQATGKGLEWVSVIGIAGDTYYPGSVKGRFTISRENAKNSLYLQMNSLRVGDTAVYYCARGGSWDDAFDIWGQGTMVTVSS VL: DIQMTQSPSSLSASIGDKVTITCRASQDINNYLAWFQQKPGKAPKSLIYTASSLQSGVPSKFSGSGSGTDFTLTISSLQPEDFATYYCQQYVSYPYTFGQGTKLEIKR', 'pIC50', 10.30);

Measured pIC50 of Antibody B (antibody, human IgG1, kappa, L234A L235A, V domains shown) VH: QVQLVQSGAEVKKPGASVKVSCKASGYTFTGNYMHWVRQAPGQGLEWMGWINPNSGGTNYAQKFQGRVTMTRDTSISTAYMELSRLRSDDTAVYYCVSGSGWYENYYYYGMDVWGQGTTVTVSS VL: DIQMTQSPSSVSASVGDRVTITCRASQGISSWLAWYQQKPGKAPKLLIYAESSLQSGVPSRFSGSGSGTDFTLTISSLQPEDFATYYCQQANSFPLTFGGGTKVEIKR : 8.34

Form field pIC50, entry Anti-SIRPα antibody KWAR23 (antibody, V domains shown) VH: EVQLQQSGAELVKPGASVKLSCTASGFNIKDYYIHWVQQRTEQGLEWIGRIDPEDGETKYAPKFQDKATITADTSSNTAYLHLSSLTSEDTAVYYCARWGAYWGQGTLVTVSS VL: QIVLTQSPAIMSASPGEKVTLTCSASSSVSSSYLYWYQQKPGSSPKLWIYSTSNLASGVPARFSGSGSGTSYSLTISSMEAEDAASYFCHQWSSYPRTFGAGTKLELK : 9.96
